- PROTOCOL_DETAILS: Cytotoxicity against HELF cells after by Coulter counter method
- Format: cell-based
- EXPERIMENTAL_PARAMETERS: human
MEASURE: CC50

compound=C#C[C@@]1(O)[C@@H](CO)O[C@@H](n2cc(I)c3c(Cl)ccnc32)[C@@H]1O measure=CC50 value="0.16 µM"
compound=C#C[C@@]1(O)[C@@H](CO)O[C@@H](n2cc(Br)c3c(Cl)ccnc32)[C@@H]1O measure=CC50 value="0.35 µM"
compound="Nc1nc2c(ncn2COCCO)c(=O)[nH]1 [ACYCLOVIR]" measure=CC50 value="> 440 µM"
compound=CC[C@@]1(O)[C@@H](CO)O[C@@H](n2cc(Cl)c3c(N)ncnc32)[C@@H]1O measure=CC50 value="3.41 µM"

Query :: Name the recorded CC50 of the compound listed here: C#C[C@@]1(O)[C@@H](CO)O[C@@H](n2cc(Cl)c3c(Cl)ccnc32)[C@@H]1O
Result :: 5.25 µM

* * *

- Test system: COLO 205
- PROTOCOL_DETAILS: Growth inhibition of human COLO205 cells assessed as cell growth at 10^-8 M incubated for 48 hrs by sulforhodamine B assay relative to control
- Assay type: functional
- EXPERIMENTAL_PARAMETERS: COLO 205, 48 h, read-out: Activity
Some compounds, each annotated with its measured growth at 0.01 µM.

compound_string=C#C[C@@]1(O)[C@@H](CO)O[C@@H](n2cc(I)c3c(N)ncnc32)[C@@H]1O assayed_target="COLO 205" value="79 to 98%"
compound_string=C#C[C@@]1(O)[C@@H](CO)O[C@@H](n2ccc3c(N)ncnc32)[C@@H]1O assayed_target="COLO 205" value=95%
compound_string=C#C[C@@]1(O)[C@@H](CO)O[C@@H](n2cc(Cl)c3c(N)ncnc32)[C@@H]1O assayed_target="COLO 205" value="93 to 96%"
compound_string=C#C[C@@]1(O)[C@@H](CO)O[C@@H](n2cc(Br)c3c(N)ncnc32)[C@@H]1O assayed_target="COLO 205" value="95 to 97%"

Query :: System COLO 205. Read-out growth at 0.01 µM. Item C#C[C@@]1(O)[C@@H](CO)O[C@@H](n2cc(F)c3c(N)ncnc32)[C@@H]1O . Report value.
Result :: 101%

* * *

Some molecules, each annotated with its measured TGI.
- System: SK-MEL-28
- PROTOCOL_DETAILS: Cytotoxicity against human SK-MEL-28 cells after 48 hrs by SRB assay
- Type: functional
- EXPERIMENTAL_PARAMETERS: SK-MEL-28, 48 h, read-out: TGI

Take a look at these entries with their results.
compound_string=C#C[C@@]1(O)[C@@H](CO)O[C@@H](n2cc(F)c3c(N)ncnc32)[C@@H]1O value="> 100 µM"
compound_string=C#C[C@@]1(O)[C@@H](CO)O[C@@H](n2cc(I)c3c(N)ncnc32)[C@@H]1O value="9.27 to 14 µM"
compound_string=C#C[C@@]1(O)[C@@H](CO)O[C@@H](n2ccc3c(N)ncnc32)[C@@H]1O value="20.2 µM"
compound_string=C#C[C@@]1(O)[C@@H](CO)O[C@@H](n2cc(Br)c3c(N)ncnc32)[C@@H]1O value="30.2 to 48.1 µM"

Shifting focus to the molecule that follows.
Query :: Name the recorded TGI of the molecule listed here: C#C[C@@]1(O)[C@@H](CO)O[C@@H](n2cc(Cl)c3c(N)ncnc32)[C@@H]1O
Result :: 57.1 to 89.4 µM
